Documented Kd across a set of binders
target: T1, AFP158/HLA-A*02:01 complex (human); test: SPR, scFv captured, pMHC in flow;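 further: complex injected at several concentrations over crude scFv, association then running-buffer dissociation, KD estimated from kinetic on- and off-rate constants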
T1 construct: flowed over the chip in SPR; also called AFP158 pro
Measurement Kind: Kd (nM)

[[record]]
binder = "LE32W (scFv, AS170036 VL1VH1 scFv mutein; also called AS170036 VL1VH1-VLE32W) scFv: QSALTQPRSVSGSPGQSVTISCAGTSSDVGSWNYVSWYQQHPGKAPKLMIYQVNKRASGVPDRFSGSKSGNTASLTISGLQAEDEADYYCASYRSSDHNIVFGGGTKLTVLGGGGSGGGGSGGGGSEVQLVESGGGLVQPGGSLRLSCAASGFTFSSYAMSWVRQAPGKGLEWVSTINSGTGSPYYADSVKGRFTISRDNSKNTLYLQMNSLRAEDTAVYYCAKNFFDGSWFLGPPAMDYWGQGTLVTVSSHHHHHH"
recorded_value = 100

[[record]]
binder = "LD97S (scFv, AS170036 VL1VH1 scFv mutein) scFv: QSALTQPRSVSGSPGQSVTISCAGTSSDVGSENYVSWYQQHPGKAPKLMIYQVNKRASGVPDRFSGSKSGNTASLTISGLQAEDEADYYCASYRSSSHNIVFGGGTKLTVLGGGGSGGGGSGGGGSEVQLVESGGGLVQPGGSLRLSCAASGFTFSSYAMSWVRQAPGKGLEWVSTINSGTGSPYYADSVKGRFTISRDNSKNTLYLQMNSLRAEDTAVYYCAKNFFDGSWFLGPPAMDYWGQGTLVTVSSHHHHHH"
recorded_value = 420


Values from patent US20240279318A1
